Value source: PubChem BioAssay AID743417

- Test system: Clone20 osteoblast Shn3 3'UTR firefly luciferase, 24 h
- TEST_PROTOCOL: Shn3 3'UTR reporter inhibitors, dose response, cell-based, Clone20 osteoblasts, luminescence, dry powder, set 2 (AID 743417)
Results filed as inconclusive are left out.
Quick list: AC50 per entry.

MOLECULE	STUDY_SYSTEM	AC50
CCc1nnc(NC(=O)c2nc(S(=O)(=O)Cc3cccc(C)c3)ncc2Cl)s1	Clone20 osteoblast Shn3 3'UTR firefly luciferase, 24 h	2.51 µM
COc1ccc(C(NC(C)=O)c2ccc3cccnc3c2O)c(OC)c1 (stereo not given)	Clone20 osteoblast Shn3 3'UTR firefly luciferase, 24 h	1.74 µM

Given the molecule `CCN(CC)S(=O)(=O)c1ccc(C)c(NC(=S)N2CCN(C/C=C/c3ccccc3)CC2)c1` , what is its reported AC50?
2.55 µM

Given the molecule `Clc1cc2cccnc2c2ncccc12` , what is its reported AC50?
4.06 µM

Given the molecule `COc1ccc(Nc2nc(N3CCCC3)c3ccccc3n2)cc1` , what is its reported AC50?
3.67 µM
